- tested system: HIV-1 integrase (IN), monomer E (HIV-1) (UniProt P04585)
- experiment description: SAXS titration
quantity name: Kd (nM)
Give bare numbers, in nM.

QUERY: # query: Kd of entry AAAAAAAAAAAAAAAAAAAAA (double strand) [ds A21-T21]
RESULT: 40
